# Tested on: OVCAR-4 ovarian
# TEST DESCRIPTION: NCI-60 one-dose screen, 48 h (100 = growth as untreated, 0 = no growth, -100 = all killed)
# RUN CONDITIONS: 10 µM
# Procedure: Growth inhibition of the OVCAR-4 human tumor cell line is measured as a screen for anti-cancer activity. Cells are grown in 96 well plates and exposed to the test compound for 48 hours. Compounds are tested at a single concentration, which is 10^-5 M for most compounds. The reported endpoint is percent growth (GI% or GIPRCNT), where numbers from 0 - 100% represent growth inhibition, and numbers from -100% - 0 represent cell death. For example, a value of 40 represents 60% growth inhibition. […]
This is part of a sample that, as a whole, favours compounds with a hit. Of some 83,000 tested, about 20% had one in any assay.
READOUT NAME: growth (%)
The reply should be a number in %, with the unit left off.

COc1ccc(-c2nc(SCC(=O)c3ccc(Br)cc3)[nH]c(=O)c2C#N)cc1 :: 120

Task item: Need growth, item CC(C)C[C@H](NC(=O)Cn1ccc2ccccc2c1=O)B(O)O
Reply: 93.3

Task item: growth for Nc1ncc(-c2ccc(C(F)(F)F)cc2)c(NC2CCCCCC2)n1 ?
Reply: 20

Task item: Item under review: CCOC(=O)C(CCC1=NC(C)(C)CC(C)O1)C(=O)OCC (stereo not drawn) . Reported growth?
Reply: 90.6

Task item: What value of growth has been reported for the following molecule? COc1ccc(-c2csc(-c3cc(Cl)cc(Cl)c3Cl)n2)cc1
Reply: 85.2

Task item: // lookup growth for COc1cc(-c2nc3ccc(C)cc3[nH]2)ccc1OCC(=O)N=Nc1c(O)[nH]c2ccccc12
Reply: -82.2

Task item: Return reported growth; argument: O=C1CC(c2cccc(-c3cccnc3)c2)=Nc2ccc(Br)cc2N1
Reply: -4.81

Task item: Need growth of O=S(=O)(O)C1(O)CCCCC1 , thanks.
Reply: 79.1

Task item: For NCCNc1ccc2cc(-c3nc4ccccc4[nH]3)c(=O)oc2c1 , what is its reported growth?
Reply: 86.1

Task item: Looking for the measured growth of C/C(=N\NC(N)=S)C(C)(C)O , can you help?
Reply: 66.6

Task item: Look at this molecule and give its reported growth. O=NN(CCCl)C(=O)Nc1ccc(NC(=O)N(CCCl)N=O)cc1
Reply: 93.7

Task item: Consider the molecule shown here: COc1ccc(S(=O)(=O)Nc2ccc(OCc3nnc(-c4ccc(Cl)cc4)o3)c(F)c2)cc1 What is its recorded growth?
Reply: 45.5

Task item: Please give the measured growth for this molecule: CC(=O)c1c(O)cc2c3c1OC(C)(C)C1CCC(C)(CC31)O2 (stereo not drawn)
Reply: 89.6

Task item: Item under review: c1ccc(CNc2nc(Nc3ccc(-c4nc5ccccc5[nH]4)cc3)c3cn[nH]c3n2)cc1 . Reported growth?
Reply: 25.7

Task item: Please look up its growth: CN(C1c2ccccc2Oc2ccccc21)S(=O)(=O)c1cc(Cl)ccc1Cl
Reply: 69.2

Task item: I'd like to know its growth. The molecule in question is COCCNCC(O)Cn1c2ccc(Cl)cc2c2cc(Cl)ccc21 (stereo not drawn)
Reply: -97.3

Task item: Consider the molecule shown here: CCc1c(C)[nH]c(=O)c(C(N)=O)c1C#N What is its recorded growth?
Reply: 115

Task item: // lookup growth for CCn1nc(-c2ccccn2)c2cccnc2c1=S
Reply: 26.5

Task item: Please look up its growth: COc1cc(CSc2nc3ccc(Cl)cc3c(=O)n2-c2ccccc2)cc(OC)c1OC
Reply: 81.7

Task item: Which measured growth value corresponds to CC(C)(C)CC(C)(C)c1ccc(O)c(Cc2ccc(Cl)cc2Cl)c1 ?
Reply: -86.5

Task item: Query: growth; subject: Fc1ccc2[nH]c3c(NCCCN4CCOCC4)ncnc3c2c1
Reply: -38.6

Task item: For the molecule C=CCn1c(C)nc2cc(Nc3nc(Nc4ccc5nc(C)n(CC=C)c5c4)c4ccccc4n3)ccc21 , what growth is on record?
Reply: -100

Task item: Field request: growth | item: CCN(CC)CC(O)CNc1ccnc2cc(Cl)c(Cl)cc12 (stereo not drawn)
Reply: 85.9
